// Serine/threonine-protein kinase pim-1 (Homo sapiens, UniProt P11309) IC50 records
property: IC50 (nM)

Sample records with IC50:
smi	IC50 [nM]
CCN(CC)CCOc1cncc(-c2ccc3[nH]cc(-c4ccnc(N)n4)c3c2)n1	25.8
CN(C)CCCNc1cncc(-c2ccc3[nH]cc(-c4ccnc(N)n4)c3c2)n1	18.3
CN(C)CCOc1cncc(-c2ccc3[nH]cc(C(=O)c4ccccc4)c3c2)n1	400
CN(C)CCNc1cncc(-c2ccc3[nH]cc(-c4ccnc(N)n4)c3c2)n1	3.4
CN(C)CCOc1cncc(-c2ccc3[nH]cc(-c4ccnc(N)n4)c3c2)n1	20.4

[P] CN(C)/C=C/C(=O)c1c[nH]c2ccc(-c3cncc(OCCN(C)C)n3)cc12
[Q] CC(=O)c1c[nH]c2ccc(-c3cncc(NCCN(C)C)n3)cc12
Query: Response body: label of entry with the larger IC50; valid values P , Q . Could you answer with the label of the item you picked?
Reply: P
(P: 1130 nM, Q: 270 nM)

---

target: Serine/threonine-protein kinase pim-2 (Homo sapiens, UniProt Q9P1W9)
Sequence (Q9P1W9 whole entry): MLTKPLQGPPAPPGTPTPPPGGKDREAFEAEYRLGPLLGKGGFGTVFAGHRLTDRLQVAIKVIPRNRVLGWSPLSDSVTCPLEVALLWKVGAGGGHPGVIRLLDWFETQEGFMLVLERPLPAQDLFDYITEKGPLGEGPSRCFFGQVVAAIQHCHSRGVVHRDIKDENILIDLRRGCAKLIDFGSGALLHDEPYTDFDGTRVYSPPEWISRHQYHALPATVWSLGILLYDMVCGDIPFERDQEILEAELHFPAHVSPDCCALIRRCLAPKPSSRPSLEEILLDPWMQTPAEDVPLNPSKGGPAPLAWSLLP
pIC50: −log10 of the molar value.
property: pIC50

smi	property	reportedResult
CCN(CC)CCCOc1cncc(-c2ccc3[nH]cc(-c4ccnc(N)n4)c3c2)n1	pIC50	6.18

[A] CCN(CC)CCNc1cncc(-c2ccc3[nH]cc(-c4ccnc(N)n4)c3c2)n1
[B] CCOc1cncc(-c2ccc3[nH]cc(-c4ccnc(N)n4)c3c2)n1
Query: Response body: label of entry with the larger pIC50; valid values A , B . Could you answer with the label of the item you picked?
Reply: A

---

experiment: Antiproliferative activity against human MV411 cells assessed as cell viability after 24 hrs by MTS assay; type: functional, cell-based; conditions: MV4-11, 24 h
property: EC50 (µM)
Lab book: enter the figure in µM, no units written.

Sample records with EC50:
smi	readoutUnit	reportedResult
CCN(CC)CCCOc1cncc(-c2ccc3[nH]cc(-c4ccnc(N)n4)c3c2)n1	µM	1.5
CCN(CC)CCOc1cncc(-c2ccc3[nH]cc(-c4ccnc(N)n4)c3c2)n1	µM	3.3

Query: Please give the measured EC50 for this molecule: CN(C)CCOc1cncc(-c2ccc3[nH]cc(-c4ccnc(N)n4)c3c2)n1
Reply: 2.9

Query: Please give the measured EC50 for this molecule: CCOc1cncc(-c2ccc3[nH]cc(-c4ccnc(N)n4)c3c2)n1
Reply: 0.5

---

// Serine/threonine-protein kinase pim-3 (Homo sapiens, UniProt Q86V86) IC50 records
property: IC50 (nM)

smi	IC50 (nM)
CN(C)CCN(C)c1cncc(-c2ccc3[nH]cc(-c4ccnc(N)n4)c3c2)n1	7.8

[A] CCN(CC)CCNc1cncc(-c2ccc3[nH]cc(-c4ccnc(N)n4)c3c2)n1
[B] CCN(CC)CCCOc1cncc(-c2ccc3[nH]cc(-c4ccnc(N)n4)c3c2)n1
[C] CN(C)CCCNc1cncc(-c2ccc3[nH]cc(-c4ccnc(N)n4)c3c2)n1
[D] CN(C)CCCOc1cncc(-c2ccc3[nH]cc(-c4ccnc(N)n4)c3c2)n1
Query: Ranking field: IC50; order: falling. Answer with the labels in sequence, matching the requested order.
Reply: B, C, D, A

Recorded values, source ChEMBL document CHEMBL3259764.
